biological target: Prothrombin (Homo sapiens); test: Compound was evaluated for its 50 percent inhibitory concentration against human thrombin factor (FIIa)
readout: IC50 (µM)

Consider the reported IC50 for these molecules:
CC(=O)NN(CCCc1ccccc1)C(=O)[C@@H]1CCCC[C@H]1C(=O)N[C@H](C=O)CCCN=C(N)N: 12.8
CC(C)(C)OC(=O)NN(Cc1ccccc1)C(=O)[C@@H]1CCCC[C@H]1C(=O)N[C@@H](CCCN=C(N)N)C(=O)C(=O)NCCc1ccccc1: 0.88

[P] CC(=O)NN(Cc1ccccc1)C(=O)[C@@H]1CCCC[C@H]1C(=O)N[C@@H](CCCN=C(N)N)C(=O)C(=O)NCCc1ccccc1
[Q] CCCC(CCC)C(=O)NN(CC(=O)OCC)C(=O)[C@@H]1CCCC[C@H]1C(=O)N[C@@H](CCCN=C(N)N)C(=O)C(=O)NCCc1ccccc1
[R] CCOC(=O)CN(NC(C)=O)C(=O)[C@@H]1CCCC[C@H]1C(=O)N[C@H](C=O)CCCN=C(N)N
[S] CC(C)(C)OC(=O)N[C@@H](CC(=O)O)C(=O)N1CCCC1C(=O)N[C@@H](CCCN=C(N)N)C(=O)C(=O)NCCc1ccccc1 (some centres undefined)
Input line: I would appreciate it if you could sort these 4 molecules by IC50, starting from the smallest number. Respond with an ordered listing of the labels, as requested.
Output line: S, P, Q, R

* * *

target: Coagulation factor VII (Homo sapiens); test: Compound was evaluated for its 50 percent inhibitory concentration against human Coagulation factor VII
Sequence (P08709 61-212 limits assumed): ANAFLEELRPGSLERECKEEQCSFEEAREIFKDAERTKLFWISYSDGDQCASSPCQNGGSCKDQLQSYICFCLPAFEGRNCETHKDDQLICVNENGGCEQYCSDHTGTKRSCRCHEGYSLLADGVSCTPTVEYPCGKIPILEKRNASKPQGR
Sequence (P08709 213-466 limits assumed): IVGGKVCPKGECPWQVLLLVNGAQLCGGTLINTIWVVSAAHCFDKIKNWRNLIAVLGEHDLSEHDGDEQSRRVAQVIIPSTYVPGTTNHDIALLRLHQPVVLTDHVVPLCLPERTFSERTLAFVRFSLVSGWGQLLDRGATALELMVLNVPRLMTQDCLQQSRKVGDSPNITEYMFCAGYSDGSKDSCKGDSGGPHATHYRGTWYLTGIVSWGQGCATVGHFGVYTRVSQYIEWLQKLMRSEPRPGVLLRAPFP
readout: IC50 (µM)

COC(=O)CN(NC(=O)OC(C)(C)C)C(=O)[C@@H]1CCCC[C@H]1C(=O)N[C@@H](CCCN=C(N)N)C(=O)C(=O)NCCc1ccccc1: 18
CC(=O)NN(Cc1ccccc1)C(=O)[C@@H]1CCCC[C@H]1C(=O)N[C@@H](CCCN=C(N)N)C(=O)C(=O)NCCc1ccccc1: 8.5
CC(=O)N[C@H](Cc1ccccc1)C(=O)N1CCC[C@H]1C(=O)N[C@H]1CCCN(C(=N)N)C1O (some centres not stated): 4.3

[P] CC(C)(C)OC(=O)N[C@@H](CC(=O)O)C(=O)N1CCCC1C(=O)N[C@@H](CCCN=C(N)N)C(=O)C(=O)NCCc1ccccc1 (some centres not stated)
[Q] CCOC(=O)CN(NC(=O)OC(C)(C)C)C(=O)[C@@H]1CCCC[C@H]1C(=O)N[C@H](C=O)CCCN=C(N)N
Input line: Please state the entry with greater IC50 among P and Q . Pick one and reply with its label.
Output line: Q
(Q: 22 µM, P: 0.706 µM)

* * *

IC50 by entry:
biological target: Plasminogen (Homo sapiens, UniProt P00747); test: Compound was evaluated for its 50% inhibitory concentration against human protease enzyme plasmin
Sequence (P00747 97-580 limits assumed): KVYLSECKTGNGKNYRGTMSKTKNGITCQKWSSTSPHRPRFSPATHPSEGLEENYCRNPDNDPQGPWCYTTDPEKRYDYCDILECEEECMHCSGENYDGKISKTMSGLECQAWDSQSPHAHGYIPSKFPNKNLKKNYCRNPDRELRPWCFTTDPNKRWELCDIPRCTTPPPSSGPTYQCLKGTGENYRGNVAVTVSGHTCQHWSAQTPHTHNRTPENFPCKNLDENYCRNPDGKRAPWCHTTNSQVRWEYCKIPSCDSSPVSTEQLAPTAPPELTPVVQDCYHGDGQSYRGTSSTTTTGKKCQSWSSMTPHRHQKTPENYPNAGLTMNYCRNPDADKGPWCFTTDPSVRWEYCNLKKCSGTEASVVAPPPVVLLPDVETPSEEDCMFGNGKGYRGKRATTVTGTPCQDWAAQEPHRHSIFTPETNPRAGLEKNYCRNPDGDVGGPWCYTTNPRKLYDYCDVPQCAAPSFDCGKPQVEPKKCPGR
Sequence (P00747 581-810 limits assumed): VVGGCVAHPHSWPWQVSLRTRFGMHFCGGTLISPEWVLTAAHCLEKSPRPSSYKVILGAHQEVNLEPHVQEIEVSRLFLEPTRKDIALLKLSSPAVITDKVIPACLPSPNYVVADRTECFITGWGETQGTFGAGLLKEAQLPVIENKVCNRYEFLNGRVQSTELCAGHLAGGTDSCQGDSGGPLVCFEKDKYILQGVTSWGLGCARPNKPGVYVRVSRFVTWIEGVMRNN

CC(=O)NN(Cc1ccccc1)C(=O)[C@@H]1CCCC[C@H]1C(=O)N[C@@H](CCCN=C(N)N)C(=O)C(=O)NCCc1ccccc1: > 2500 nM
CC(C)(C)OC(=O)N[C@@H](CC(=O)O)C(=O)N1CCCC1C(=O)N[C@@H](CCCN=C(N)N)C(=O)C(=O)NCCc1ccccc1 (stereo partly drawn): 2710 nM

Query compound follows.
Input line: Kindly state the measured IC50 obtained for CC(=O)N[C@H](Cc1ccccc1)C(=O)N1CCC[C@H]1C(=O)N[C@H]1CCCN(C(=N)N)C1O (stereo partly drawn) with Plasminogen (Homo sapiens, UniProt P00747).
Output line: > 2500 nM

* * *

For Coagulation factor X (Homo sapiens, UniProt P00742), measured IC50 is reported for the entries below.
readout: IC50

CC(=O)NN(CCCc1ccccc1)C(=O)[C@@H]1CCCC[C@H]1C(=O)N[C@H](C=O)CCCN=C(N)N: Not Active
CCCC(CCC)C(=O)NN(CC(=O)OCC)C(=O)[C@@H]1CCCC[C@H]1C(=O)N[C@@H](CCCN=C(N)N)C(=O)C(=O)NCCc1ccccc1: Not Active
CC(=O)NN(Cc1ccccc1)C(=O)[C@@H]1CCCC[C@H]1C(=O)N[C@H](C=O)CCCN=C(N)N: Not Active

* * *

molecular target: Coagulation factor VII (Homo sapiens); test: Compound was evaluated for its 50 percent inhibitory concentration against human Coagulation factor VII
pIC50: −log10 of the molar value.
readout: pIC50

CCOC(=O)CN(NC(=O)OC(C)(C)C)C(=O)[C@@H]1CCCC[C@H]1C(=O)N[C@@H](CCCN=C(N)N)C(=O)C(=O)NCCc1ccccc1: 4.60
CC(=O)NN(Cc1ccccc1)C(=O)[C@@H]1CCCC[C@H]1C(=O)N[C@H](C=O)CCCN=C(N)N: < 4.60

Query compound follows.
Input line: GET /values?readout=pIC50&item= CC(=O)NN(CCCc1ccccc1)C(=O)[C@@H]1CCCC[C@H]1C(=O)N[C@H](C=O)CCCN=C(N)N
Output line: < 4.60

* * *

target: Coagulation factor X (Homo sapiens, UniProt P00742); experiment: Compound was evaluated for its 50% inhibitory concentration against Coagulation factor X
Sequence (P00742 41-179 limits assumed): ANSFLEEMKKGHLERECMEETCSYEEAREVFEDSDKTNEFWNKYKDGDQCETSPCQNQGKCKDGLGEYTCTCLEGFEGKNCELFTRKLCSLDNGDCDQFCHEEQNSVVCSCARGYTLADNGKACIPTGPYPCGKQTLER
Sequence (P00742 235-488 limits assumed): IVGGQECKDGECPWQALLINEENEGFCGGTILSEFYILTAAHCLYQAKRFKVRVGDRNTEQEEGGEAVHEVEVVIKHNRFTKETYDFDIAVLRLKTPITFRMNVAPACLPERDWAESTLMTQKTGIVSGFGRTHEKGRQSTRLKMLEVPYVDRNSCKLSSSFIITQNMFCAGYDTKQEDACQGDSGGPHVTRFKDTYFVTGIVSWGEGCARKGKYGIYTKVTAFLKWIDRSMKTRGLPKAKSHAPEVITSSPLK
readout: pIC50
Remember the convention: pIC50 equals -log10 of concentration in molar.

Input line: GET /values?readout=pIC50&item= CC(C)(C)OC(=O)N[C@@H](CC(=O)O)C(=O)N1CCCC1C(=O)N[C@@H](CCCN=C(N)N)C(=O)C(=O)NCCc1ccccc1 (some centres not stated)
Output line: 6.16

* * *

Target: Serine protease 1 (Bos taurus)
Sequence (P00760 whole entry): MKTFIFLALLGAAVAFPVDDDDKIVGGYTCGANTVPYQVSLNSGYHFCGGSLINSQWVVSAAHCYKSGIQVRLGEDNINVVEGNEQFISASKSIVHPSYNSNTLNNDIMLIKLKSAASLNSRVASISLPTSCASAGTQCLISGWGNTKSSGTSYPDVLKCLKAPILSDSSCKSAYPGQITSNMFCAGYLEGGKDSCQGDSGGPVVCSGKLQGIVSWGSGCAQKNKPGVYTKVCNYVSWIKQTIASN
pIC50: −log10 of the molar value.
readout: pIC50

CC(=O)N[C@H](Cc1ccccc1)C(=O)N1CCC[C@H]1C(=O)N[C@H]1CCCN(C(=N)N)C1O (some centres undefined): 6.81

[I] CCOC(=O)CN(NC(C)=O)C(=O)[C@@H]1CCCC[C@H]1C(=O)N[C@H](C=O)CCCN=C(N)N
[II] COC(=O)CN(NC(=O)OC(C)(C)C)C(=O)[C@@H]1CCCC[C@H]1C(=O)N[C@@H](CCCN=C(N)N)C(=O)C(=O)NCCc1ccccc1
Input line: // which entry reports the smaller pIC50, I or II ? Pick one and reply with its label.
Output line: II
(II: 5.88, I: 6.23)

* * *

For Coagulation factor X (Homo sapiens, UniProt P00742), measured IC50 is reported for the entries below.

CC(=O)NN(Cc1ccccc1)C(=O)[C@@H]1CCCC[C@H]1C(=O)N[C@@H](CCCN=C(N)N)C(=O)C(=O)NCCc1ccccc1: Not Active
CC(C)(C)OC(=O)NN(Cc1ccccc1)C(=O)[C@@H]1CCCC[C@H]1C(=O)N[C@H](C=O)CCCN=C(N)N: Not Active
CCOC(=O)CN(NC(C)=O)C(=O)[C@@H]1CCCC[C@H]1C(=O)N[C@H](C=O)CCCN=C(N)N: Not Active
CCOC(=O)CN(NC(=O)OC(C)(C)C)C(=O)[C@@H]1CCCC[C@H]1C(=O)N[C@H](C=O)CCCN=C(N)N: Not Active
CC(C)(C)OC(=O)NN(Cc1ccccc1)C(=O)[C@@H]1CCCC[C@H]1C(=O)N[C@@H](CCCN=C(N)N)C(=O)C(=O)NCCc1ccccc1: Not Active
CCOC(=O)CN(NC(=O)OC(C)(C)C)C(=O)[C@@H]1CCCC[C@H]1C(=O)N[C@@H](CCCN=C(N)N)C(=O)C(=O)NCCc1ccccc1: Not Active

Input line: Kindly state the measured IC50 obtained for COC(=O)CN(NC(=O)OC(C)(C)C)C(=O)[C@@H]1CCCC[C@H]1C(=O)N[C@@H](CCCN=C(N)N)C(=O)C(=O)NCCc1ccccc1 with Coagulation factor X (Homo sapiens, UniProt P00742).
Output line: Not Active

* * *

target: Prothrombin (Homo sapiens, UniProt P00734); assay: Compound was evaluated for its 50 percent inhibitory concentration against human thrombin factor (FIIa)
readout: IC50

CC(C)(C)OC(=O)NN(Cc1ccccc1)C(=O)[C@@H]1CCCC[C@H]1C(=O)N[C@H](C=O)CCCN=C(N)N: > 2500 nM
CCOC(=O)CN(NC(=O)OC(C)(C)C)C(=O)[C@@H]1CCCC[C@H]1C(=O)N[C@H](C=O)CCCN=C(N)N: > 2500 nM

Query compound follows.
Input line: GET /values?readout=IC50&item= CCOC(=O)CN(NC(=O)OC(C)(C)C)C(=O)[C@@H]1CCCC[C@H]1C(=O)N[C@@H](CCCN=C(N)N)C(=O)C(=O)NCCc1ccccc1
Output line: > 2500 nM
